// provenance: patent US20130230533A1

Entries and their T½ values follow.
# system: T1, Dimeric monkey CD48-mFc (monkey)
# T1 construct: Soluble monkey CD48 with a C-terminal Fc fusion [mFc]; the whole entry is the construct
# T1 chain: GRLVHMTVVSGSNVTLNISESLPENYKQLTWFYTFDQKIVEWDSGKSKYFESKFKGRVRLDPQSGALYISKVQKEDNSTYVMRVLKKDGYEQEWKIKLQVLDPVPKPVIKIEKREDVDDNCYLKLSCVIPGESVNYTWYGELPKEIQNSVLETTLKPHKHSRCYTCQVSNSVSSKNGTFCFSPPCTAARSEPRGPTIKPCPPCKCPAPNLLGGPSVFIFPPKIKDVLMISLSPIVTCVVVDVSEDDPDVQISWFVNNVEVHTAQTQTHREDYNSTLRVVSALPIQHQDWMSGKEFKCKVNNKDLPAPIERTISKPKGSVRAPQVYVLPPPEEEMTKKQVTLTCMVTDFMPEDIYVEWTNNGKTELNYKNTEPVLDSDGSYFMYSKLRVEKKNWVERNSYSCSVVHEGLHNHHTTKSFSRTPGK
# procedure.summary: SPR (Biacore), antibody captured by anti-Fc, CD48 in solution, 37 C
Give just the number in h; leave the unit off.

| binder | unit.text | quantitative.result |
| --- | --- | --- |
| H4H1771P (antibody, human IgG4, V domains shown, Human IgG4 Fc (H4H)) VH: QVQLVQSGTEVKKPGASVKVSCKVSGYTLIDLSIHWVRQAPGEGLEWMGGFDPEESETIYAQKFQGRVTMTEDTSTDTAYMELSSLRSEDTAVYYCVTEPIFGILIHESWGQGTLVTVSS VL: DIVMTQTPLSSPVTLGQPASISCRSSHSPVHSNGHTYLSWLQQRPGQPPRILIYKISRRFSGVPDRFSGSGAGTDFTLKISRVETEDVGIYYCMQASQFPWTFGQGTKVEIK | h | 1.88 |

For H4H1772P (antibody, human IgG4, V domains shown, Human IgG4 Fc (H4H)) VH: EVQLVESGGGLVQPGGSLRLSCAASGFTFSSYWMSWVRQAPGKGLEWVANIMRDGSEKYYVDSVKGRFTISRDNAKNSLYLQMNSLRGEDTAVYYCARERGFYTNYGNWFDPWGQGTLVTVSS VL: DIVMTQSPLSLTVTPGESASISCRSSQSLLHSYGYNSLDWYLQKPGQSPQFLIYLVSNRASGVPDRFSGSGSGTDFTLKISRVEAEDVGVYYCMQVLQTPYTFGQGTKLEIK , write its T½. 2.63

Quote T½ reported for H4H1763N (antibody, V domains shown, Human IgG4 Fc (H4H)) VH: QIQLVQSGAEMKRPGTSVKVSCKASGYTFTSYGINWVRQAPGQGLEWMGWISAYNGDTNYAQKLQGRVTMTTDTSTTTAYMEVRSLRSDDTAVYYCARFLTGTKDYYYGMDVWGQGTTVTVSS VL: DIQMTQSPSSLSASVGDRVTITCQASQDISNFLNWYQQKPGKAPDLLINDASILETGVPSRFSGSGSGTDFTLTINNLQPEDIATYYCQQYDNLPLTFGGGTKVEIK please. 1.68

Tell me its T½ given H4H1713N (antibody, V domains shown, Human IgG4 Fc (H4H)) VH: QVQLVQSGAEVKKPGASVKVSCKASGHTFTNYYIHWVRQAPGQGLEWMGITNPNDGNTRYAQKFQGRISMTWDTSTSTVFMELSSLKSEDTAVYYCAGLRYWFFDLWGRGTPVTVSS VL: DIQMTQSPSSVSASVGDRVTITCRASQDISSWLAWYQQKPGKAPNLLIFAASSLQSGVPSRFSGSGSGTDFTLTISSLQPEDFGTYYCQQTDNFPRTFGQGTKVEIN as the entry. 0.367

Look up and state reported T½ for H4H1774P (antibody, human IgG4, V domains shown, Human IgG4 Fc (H4H)) VH: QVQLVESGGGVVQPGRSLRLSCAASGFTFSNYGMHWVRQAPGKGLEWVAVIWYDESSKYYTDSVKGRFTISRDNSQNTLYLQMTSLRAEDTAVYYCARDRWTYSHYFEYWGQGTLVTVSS VL: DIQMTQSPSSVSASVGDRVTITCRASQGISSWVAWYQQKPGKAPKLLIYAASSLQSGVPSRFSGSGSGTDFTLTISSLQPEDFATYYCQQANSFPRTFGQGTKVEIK 3.57
